All values here come from patent US20070128217A1.

Tested on: antibodies in sera from SARS patients (sera 1a, 1b, 2, 6, 37, 62, London, SARS-yellow, SARS-green)
Format: binding, human
Set-up: unit not given here
Give measured Binding of serum 37 to looped/cyclic peptides of protein M of SARS-CoV Urbani for each item. Keep answers brief.
Numbers only.

In the examples that follow, each entry is paired with its recorded Binding of serum 37 to looped/cyclic peptides of protein M of SARS-CoV Urbani.
LACFVLAAVYRINWV
0.6
SQRVGTDSGFAAYNR
0.2
FARTRSMWSFNPETN
0.9
SFRLFARTRSMWSFN
0.6
NRYRIGNYKLNTDHA
0.6
SGFAAYNRYRIGNYK
0.7
VFLWLLWPVTLACFV
0.7
YNRYRIGNYKLNTDH
0.5

Give Binding of serum 37 to looped/cyclic peptides of protein M of SARS-CoV Urbani for each listed item.
1. LQFAYSNRNRFLYII
2. AMACIVGLMWLSYFV
3. GLMWLSYFVASFRLF
4. EQWNLVIGFLFLAWI
5. LPKEITVATSRTLSY

[0.6, 0.6, 0.5, 0.7, 0.6]

Give Binding of serum 37 to looped/cyclic peptides of protein M of SARS-CoV Urbani for each listed item.
1. RCDIKDLPKEITVAT
2. VTLACFVLAAVYRIN
3. AAVYRINWVTGGIAI
4. LVFLWLLWPVTLACF
5. IAMACIVGLMWLSYF

1: 0.6; 2: 0.7; 3: 0.7; 4: 0.7; 5: 0.4
